Target: Kdr (Homo sapiens, UniProt P35968)
Construct: Kinases are expressed as either kinase domains or full length constructs; made in house
Sequence (P35968 20-1356, species assumed): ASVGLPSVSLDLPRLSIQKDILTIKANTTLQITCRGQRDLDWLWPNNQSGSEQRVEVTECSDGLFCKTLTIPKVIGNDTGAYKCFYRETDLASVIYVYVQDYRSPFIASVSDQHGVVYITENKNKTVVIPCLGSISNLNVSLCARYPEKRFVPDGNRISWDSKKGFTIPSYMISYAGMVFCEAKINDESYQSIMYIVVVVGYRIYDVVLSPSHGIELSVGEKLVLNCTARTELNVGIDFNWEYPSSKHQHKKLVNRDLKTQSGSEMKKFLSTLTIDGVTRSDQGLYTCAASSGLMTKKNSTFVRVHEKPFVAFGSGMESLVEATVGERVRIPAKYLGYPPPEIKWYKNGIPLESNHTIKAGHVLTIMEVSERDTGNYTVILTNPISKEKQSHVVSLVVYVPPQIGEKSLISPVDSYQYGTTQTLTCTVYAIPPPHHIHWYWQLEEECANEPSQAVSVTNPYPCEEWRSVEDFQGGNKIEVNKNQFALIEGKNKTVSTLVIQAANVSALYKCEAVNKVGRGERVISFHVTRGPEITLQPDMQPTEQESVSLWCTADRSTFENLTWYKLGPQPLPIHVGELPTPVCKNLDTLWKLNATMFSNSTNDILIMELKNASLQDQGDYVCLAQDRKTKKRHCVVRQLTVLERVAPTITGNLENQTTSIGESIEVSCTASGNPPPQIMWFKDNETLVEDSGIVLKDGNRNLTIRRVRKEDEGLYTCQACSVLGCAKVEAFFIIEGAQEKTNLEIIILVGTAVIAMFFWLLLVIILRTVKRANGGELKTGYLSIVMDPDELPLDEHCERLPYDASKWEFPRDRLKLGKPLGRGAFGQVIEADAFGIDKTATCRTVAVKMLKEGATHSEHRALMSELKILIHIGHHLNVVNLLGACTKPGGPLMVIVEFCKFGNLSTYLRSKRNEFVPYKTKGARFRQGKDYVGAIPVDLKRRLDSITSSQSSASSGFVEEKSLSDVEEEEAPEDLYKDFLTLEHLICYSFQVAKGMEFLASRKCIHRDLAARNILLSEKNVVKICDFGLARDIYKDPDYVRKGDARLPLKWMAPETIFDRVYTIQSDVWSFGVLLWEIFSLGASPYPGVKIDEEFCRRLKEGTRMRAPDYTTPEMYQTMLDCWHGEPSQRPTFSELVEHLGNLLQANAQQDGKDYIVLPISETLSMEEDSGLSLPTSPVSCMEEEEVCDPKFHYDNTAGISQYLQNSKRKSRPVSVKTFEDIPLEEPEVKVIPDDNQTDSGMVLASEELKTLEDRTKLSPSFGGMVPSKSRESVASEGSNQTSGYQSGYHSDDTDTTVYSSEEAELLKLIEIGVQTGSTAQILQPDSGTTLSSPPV
Experiment: Kinase inhibition assay (33P transfer), Kdr
Format: biochemical
Conditions: read-out: KDR-1
Measured IC50 by item
assay_endpoint: IC50

1. COc1cc(Nc2ncnc(-n3c(Nc4ccccc4C(C)C)nc4ccccc43)n2)cc(OC)c1OC : < 0.782 µM
2. Cc1cccc(Nc2ncnc(N3CCCc4ccc(C(F)(F)F)cc43)n2)c1 : 6.23 to 9.08 µM
3. c1ccc(CNc2nc3ccccc3n2-c2ncnc(Nc3cccc(Cc4nnn[nH]4)c3)n2)nc1 : < 0.839 µM
4. CN(c1cccc(Cl)c1)c1ncnc(Cl)n1 : > 17.6 µM

----------
Target: Zap-70 (Homo sapiens, UniProt P43403)
Construct: Kinases are expressed as either kinase domains or full length constructs; made in house
Sequence (P43403 whole entry, species assumed, the tested form may be a part): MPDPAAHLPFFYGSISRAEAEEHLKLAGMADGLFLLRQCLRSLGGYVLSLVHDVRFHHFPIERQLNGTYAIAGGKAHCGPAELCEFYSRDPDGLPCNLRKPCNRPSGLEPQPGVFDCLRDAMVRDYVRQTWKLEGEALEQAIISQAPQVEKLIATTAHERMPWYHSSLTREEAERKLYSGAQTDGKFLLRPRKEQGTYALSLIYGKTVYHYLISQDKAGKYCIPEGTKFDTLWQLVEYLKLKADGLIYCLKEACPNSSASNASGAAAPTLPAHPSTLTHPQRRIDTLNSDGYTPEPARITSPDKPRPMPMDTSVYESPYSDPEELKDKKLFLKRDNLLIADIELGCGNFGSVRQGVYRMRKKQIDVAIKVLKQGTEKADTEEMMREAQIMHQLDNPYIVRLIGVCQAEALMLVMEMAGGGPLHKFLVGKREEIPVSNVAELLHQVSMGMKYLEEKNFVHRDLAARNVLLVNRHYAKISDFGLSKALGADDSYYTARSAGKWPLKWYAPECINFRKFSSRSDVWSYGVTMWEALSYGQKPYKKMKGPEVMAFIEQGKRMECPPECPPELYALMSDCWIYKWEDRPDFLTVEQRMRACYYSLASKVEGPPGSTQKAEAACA
Assay: Kinase inhibition assay (33P transfer), Zap-70
Assay type: biochemical
Details: Table 3; read-out: Zap-1
assay_endpoint: IC50

1. COc1ccc(Nc2ncnc(Nc3cc(-c4ccco4)n[nH]3)n2)cc1OC [Compound 337] : > 11.9 µM
2. COc1cccc(Nc2nc3ccccc3n2-c2ncnc(Nc3cc(OC)c(OC)c(OC)c3)n2)c1 [Compound 415] : > 9.01 µM
3. Cc1cccc(Nc2ncnc(Nc3cccc(Br)c3)n2)c1 [Compound 109] : 6.74 to 9.83 µM
4. COc1cc(Nc2ncnc(Nc3nc4ccccc4n3C)n2)cc(OC)c1OC [Compound 938] : > 11 µM
5. COc1cc2ccn(-c3ncnc(Nc4cc(OC)c(OC)c(OC)c4)n3)c2cc1OC [Compound 239] : > 10.3 µM
6. COc1cc(Nc2ncnc(Nc3cccc(F)c3)n2)cc(OC)c1OC [Compound 304] : > 12.1 µM
7. COc1cc(Nc2ncnc(-c3ccnc(NCCCO)c3)n2)cc(OC)c1OC [Compound 180] : > 10.9 µM
8. COc1cc(Nc2ncnc(-c3ccc(C)cc3)n2)cc(OC)c1OC [Compound 221] : > 12.8 µM

----------
Molecular target: ErbB2 (Homo sapiens)
Sequence (P04626 23-1255, species assumed): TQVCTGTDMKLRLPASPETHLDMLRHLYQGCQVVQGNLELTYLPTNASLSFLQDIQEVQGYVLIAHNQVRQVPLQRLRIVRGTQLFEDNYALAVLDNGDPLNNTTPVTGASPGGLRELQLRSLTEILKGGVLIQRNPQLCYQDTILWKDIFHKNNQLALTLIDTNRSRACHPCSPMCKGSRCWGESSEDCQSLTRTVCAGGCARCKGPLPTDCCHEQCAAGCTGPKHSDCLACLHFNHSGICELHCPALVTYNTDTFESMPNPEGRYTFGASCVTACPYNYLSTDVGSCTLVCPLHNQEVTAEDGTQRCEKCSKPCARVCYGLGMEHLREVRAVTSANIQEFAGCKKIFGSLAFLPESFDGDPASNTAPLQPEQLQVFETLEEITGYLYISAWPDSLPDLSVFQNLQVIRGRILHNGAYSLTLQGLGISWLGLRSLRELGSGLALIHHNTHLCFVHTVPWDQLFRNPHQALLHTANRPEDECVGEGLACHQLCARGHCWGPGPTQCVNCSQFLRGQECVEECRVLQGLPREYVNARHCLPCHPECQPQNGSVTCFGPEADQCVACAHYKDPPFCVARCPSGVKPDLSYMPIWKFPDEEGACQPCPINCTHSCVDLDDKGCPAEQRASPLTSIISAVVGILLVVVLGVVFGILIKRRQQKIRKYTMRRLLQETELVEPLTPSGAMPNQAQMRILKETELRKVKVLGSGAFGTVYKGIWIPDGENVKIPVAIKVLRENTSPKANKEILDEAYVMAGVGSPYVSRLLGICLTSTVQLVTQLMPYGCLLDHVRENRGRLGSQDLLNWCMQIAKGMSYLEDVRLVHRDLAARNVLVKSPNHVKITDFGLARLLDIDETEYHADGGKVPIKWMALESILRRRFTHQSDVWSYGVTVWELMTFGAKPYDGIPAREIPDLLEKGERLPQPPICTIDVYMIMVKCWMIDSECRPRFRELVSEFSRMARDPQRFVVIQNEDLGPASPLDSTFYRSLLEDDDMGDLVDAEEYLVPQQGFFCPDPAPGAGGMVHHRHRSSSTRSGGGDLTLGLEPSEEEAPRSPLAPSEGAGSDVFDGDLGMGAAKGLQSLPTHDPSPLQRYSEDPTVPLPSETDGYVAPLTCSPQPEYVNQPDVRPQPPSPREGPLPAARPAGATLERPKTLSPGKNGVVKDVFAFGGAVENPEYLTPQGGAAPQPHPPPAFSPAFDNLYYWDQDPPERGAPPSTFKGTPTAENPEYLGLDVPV
Measured IC50 by item
assay_endpoint: IC50

1. Cc1ccc2c(c1)CCCN2c1ncnc(NCCN2CCOCC2)n1 : > 12.7 µM
2. COc1ccc(Nc2ncnc(N(C)c3ccccc3)n2)cc1OC : 1.19 to 7.11 µM
3. COc1cc(Nc2ncnc(-c3cccnc3NC3CCCCC3)n2)cc(OC)c1OC : > 10.3 µM
4. COc1cc(Nc2ncnc(-n3c(NCc4nc5ccccc5[nH]4)nc4ccccc43)n2)cc(OC)c1OC : 4.58 to 6.69 µM
5. Cc1cccc(Nc2ncnc(Nc3ccc4[nH]ccc4c3)n2)c1 : < 1.26 µM
6. COc1cc(Nc2ncnc(-n3c(NCc4ccc(Cl)cc4F)nc4ccccc43)n2)cc(OC)c1OC : 6.53 to 8.4 µM
7. CCOc1cccc(Nc2ncnc(Nc3ccc(OC)c(OC)c3)n2)c1 : 6.53 to 9.53 µM
8. COc1cc(Nc2ncnc(-n3c(NCCc4ccccn4)nc4ccccc43)n2)cc(OC)c1OC : > 9.03 µM
9. COc1cc(Nc2ncnc(-c3cccnc3NC3CCc4ccccc43)n2)cc(OC)c1OC (stereo not drawn) : 5.1 to 7.44 µM

----------
Target: c-Met (Homo sapiens, UniProt P08581)
Construct: Kinases are expressed as either kinase domains or full length constructs; made in house
Sequence (P08581 25-1390): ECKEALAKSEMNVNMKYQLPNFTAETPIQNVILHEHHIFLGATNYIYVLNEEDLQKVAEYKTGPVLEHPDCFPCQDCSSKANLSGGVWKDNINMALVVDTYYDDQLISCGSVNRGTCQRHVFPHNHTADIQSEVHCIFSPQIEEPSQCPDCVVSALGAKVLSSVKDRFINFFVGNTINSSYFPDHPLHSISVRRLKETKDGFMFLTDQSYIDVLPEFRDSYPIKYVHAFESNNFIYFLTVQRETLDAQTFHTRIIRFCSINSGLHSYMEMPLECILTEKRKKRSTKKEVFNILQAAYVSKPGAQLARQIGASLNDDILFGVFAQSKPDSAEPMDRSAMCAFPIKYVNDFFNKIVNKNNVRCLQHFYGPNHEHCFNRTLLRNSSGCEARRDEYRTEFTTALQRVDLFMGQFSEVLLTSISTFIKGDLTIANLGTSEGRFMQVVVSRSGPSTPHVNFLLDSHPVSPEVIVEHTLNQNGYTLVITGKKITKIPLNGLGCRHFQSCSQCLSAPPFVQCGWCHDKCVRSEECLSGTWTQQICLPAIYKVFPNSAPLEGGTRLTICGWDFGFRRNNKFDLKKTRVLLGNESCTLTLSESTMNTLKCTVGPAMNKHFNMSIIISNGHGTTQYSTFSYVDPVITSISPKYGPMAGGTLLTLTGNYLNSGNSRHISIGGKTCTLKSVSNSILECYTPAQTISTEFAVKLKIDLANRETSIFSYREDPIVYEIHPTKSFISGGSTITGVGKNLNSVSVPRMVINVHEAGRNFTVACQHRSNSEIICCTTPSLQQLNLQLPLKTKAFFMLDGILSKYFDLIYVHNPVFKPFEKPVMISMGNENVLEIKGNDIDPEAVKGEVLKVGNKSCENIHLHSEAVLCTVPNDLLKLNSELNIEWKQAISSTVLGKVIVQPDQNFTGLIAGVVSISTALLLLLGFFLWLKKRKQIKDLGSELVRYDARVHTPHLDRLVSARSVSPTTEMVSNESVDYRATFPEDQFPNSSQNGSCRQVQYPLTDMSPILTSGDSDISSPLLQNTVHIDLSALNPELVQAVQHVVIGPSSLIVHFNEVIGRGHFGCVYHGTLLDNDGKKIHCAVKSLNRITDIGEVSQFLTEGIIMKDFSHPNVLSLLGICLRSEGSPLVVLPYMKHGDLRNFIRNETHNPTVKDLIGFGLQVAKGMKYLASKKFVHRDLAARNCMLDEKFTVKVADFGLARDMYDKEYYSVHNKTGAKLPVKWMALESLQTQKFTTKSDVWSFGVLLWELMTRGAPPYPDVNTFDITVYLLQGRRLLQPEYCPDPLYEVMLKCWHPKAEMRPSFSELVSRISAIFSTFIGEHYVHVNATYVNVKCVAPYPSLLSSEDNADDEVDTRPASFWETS
Experiment: Kinase inhibition assay (33P transfer), c-Met
Assay type: biochemical
Details: Table 2, kinase inhibition class; read-out: Met-1
pIC50: −log10 of the molar value.
assay_endpoint: pIC50

1) COc1cc(Nc2ncnc(Nc3cccc(C)c3)n2)cc(OC)c1OC : 5.02 to 5.18
2) COc1ccccc1Nc1ncnc(Nc2cc(OC)c(OC)c(OC)c2)n1 : < 4.93
3) NC(=O)c1ccc(Nc2ncnc(-c3cccnc3NCc3cccs3)n2)cc1 : < 4.95
4) COc1cc(Nc2ncnc(Nc3cc(OC)c(OC)c(OC)c3)n2)cc(OC)n1 : < 4.96
